# System: Replicase polyprotein 1ab (Severe acute respiratory syndrome coronavirus 2)
# Assay Text: Inhibition of recombinant SARS-CoV-2 main protease expressed in Escherichia coli BL21 DE3 expression cells using MCA-AVLQSGFR-Lys(Dnp)-Lys-NH2 as substrate incubated for 10 to 15 mins followed by substrate addition by FRET assay
Measured Parameter: pIC50
As a rule, pIC50 stands for the negative log10 of the concentration, concentration in M.

Exercise: Give me measured pIC50, please, for this compound: CN1C(=O)/C(=C2/C(=O)N(CCN3CCCC3)c3ccccc32)c2ccccc21.Cl
Key: 5.94

Exercise: Give me measured pIC50, please, for this compound: O=C(O)CCCCCCCN1C(=O)/C(=C2/C(=O)Nc3ccccc32)c2cc(Br)ccc21
Key: 5.92

Exercise: Give me measured pIC50, please, for this compound: COc1ccc2c(c1)/C(=C1\C(=O)Nc3ccccc31)C(=O)N2CCCCCCCC(=O)O
Key: 5.79

Exercise: Give me measured pIC50, please, for this compound: O=C1Nc2ccccc2/C1=C1\C(=O)Nc2ccccc21
Key: 5.92

Exercise: Give me measured pIC50, please, for this compound: CN1C(=O)/C(=C2/C(=O)Nc3ccccc32)c2ccccc21
Key: 4.81

Exercise: Give me measured pIC50, please, for this compound: CN1C(=O)/C(=C2/C(=O)N(CCN)c3ccccc32)c2cc(Br)ccc21.Cl
Key: 5.96

Exercise: Give me measured pIC50, please, for this compound: CN1C(=O)/C(=C2/C(=O)N(CCCN)c3ccc(Br)cc32)c2ccccc21.Cl
Key: 5.87

The values you see were collected from ChEMBL document CHEMBL5550155.
